Target: interaction between p53 and MDM2 proteins (Homo sapiens, UniProt Q00987)
Sequence (Q00987 whole entry): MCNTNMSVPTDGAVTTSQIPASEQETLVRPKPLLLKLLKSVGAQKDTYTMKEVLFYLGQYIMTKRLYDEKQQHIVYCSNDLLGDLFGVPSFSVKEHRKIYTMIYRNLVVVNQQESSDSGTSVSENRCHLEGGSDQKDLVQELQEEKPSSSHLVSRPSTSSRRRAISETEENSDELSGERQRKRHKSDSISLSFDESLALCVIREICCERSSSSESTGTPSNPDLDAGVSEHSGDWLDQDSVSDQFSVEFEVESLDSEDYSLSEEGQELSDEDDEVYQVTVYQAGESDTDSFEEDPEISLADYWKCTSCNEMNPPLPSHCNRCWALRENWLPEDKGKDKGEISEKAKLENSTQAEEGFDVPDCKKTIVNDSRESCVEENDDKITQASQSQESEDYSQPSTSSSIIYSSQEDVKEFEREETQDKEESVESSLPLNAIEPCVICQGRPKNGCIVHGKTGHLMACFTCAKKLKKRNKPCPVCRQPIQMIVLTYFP
Experiment: HTRF assay of inhibition of p53-MDM2 interaction (GST-MDM2 / biotinylated p53 peptide)
Conditions: 0.02% BSA
Experimental: The ability of the compounds to inhibit the interaction between p53 and MDM2 proteins was measured by an HTRF (homogeneous time-resolved fluorescence) assay in which recombinant GST-tagged MDM2 binds to a peptide that resembles the MDM2-interacting region of p53 (Lane et al.). […]
pIC50: −log10 of the molar value.
experimental endpoint: pIC50

Worked set:
Cc1ccc(F)cc1[C@H]1NC(=O)C=C(c2cccc(Cl)c2)[C@]12C(=O)Nc1cc(Cl)ccc12    7.18
O=C1C=C(c2cccc(F)c2)[C@]2(C(=O)Nc3cc(Cl)ccc32)[C@@H](c2cc(Cl)ccc2OC2CCOCC2)N1 (racemic)    6.32
Cc1ccc(F)cc1[C@H]1NC(=O)C=C(c2cccnc2)[C@]12C(=O)Nc1cc(Cl)ccc12 (racemic)    5.19

I: O=C1C=C(c2cccc(Cl)c2)[C@]2(C(=O)Nc3cc(Cl)ccc32)[C@@H](c2cc(Cl)ccc2OC2CCOCC2)N1 (racemic)
II: Cc1ccc(F)cc1[C@H]1NC(=O)C=C(c2ccoc2)[C@]12C(=O)Nc1cc(Cl)ccc12 (racemic)
Query string: Which has the higher pIC50, I or II ? Reply briefly: the label of your chosen item.
Result string: I
(I: 6.56, II: 5.28)
